# ASSAYED SYSTEM: T1, Bre1-LR K379A (budding yeast, UniProt Q07457 227-700, K379A)
# T1 construct: source: E. coli BL21 Rosetta (DE3), purified (Ni-NTA, heparin, gel filtration)
# T1 sequence (looked up): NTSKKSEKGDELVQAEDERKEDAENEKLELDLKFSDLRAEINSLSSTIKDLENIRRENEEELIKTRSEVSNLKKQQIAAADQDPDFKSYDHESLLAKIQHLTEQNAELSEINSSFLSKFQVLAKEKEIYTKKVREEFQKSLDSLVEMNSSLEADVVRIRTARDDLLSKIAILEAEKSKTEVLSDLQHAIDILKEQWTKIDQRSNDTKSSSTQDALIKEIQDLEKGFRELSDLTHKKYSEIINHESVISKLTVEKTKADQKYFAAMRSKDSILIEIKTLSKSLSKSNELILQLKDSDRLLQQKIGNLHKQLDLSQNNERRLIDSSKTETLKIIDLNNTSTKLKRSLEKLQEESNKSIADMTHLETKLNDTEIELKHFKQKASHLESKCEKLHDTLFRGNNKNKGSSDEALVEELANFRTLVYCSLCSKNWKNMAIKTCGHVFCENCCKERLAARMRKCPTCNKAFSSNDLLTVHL
# TEST NAME: ITC; Lge1-CT (50–60 μM) injected into Bre1-LR (15 μM); 25°C, 20 mM TRIS (pH 7.5), 200 mM sodium chloride
# EXPERIMENTAL SETUP: both partners purified
OUTCOME MEASURE: Kd (nM)
Response body: numeric value in nM, unit text excluded.

[ask] Would you mind telling me what Kd value was observed for Lge1-CT (Lge1 residues 261–332), intein-chitin binding domain (CBD) tag construct (domain or fragment, budding yeast, UniProt Q02796 261-332, looked up, Lge1, budding yeast, residues 261-332; residues 268–331 resolved in the electron density; the intein-CBD tag is named on the protein in the pull-down; also called intein-CBD-fused Lge1-CT; intein-CBD-tagged Lge1-CT; source: E. coli BL21 Rosetta (DE3): cleared cell extract on chitin resin (pull-down); purified (chitin, heparin, gel filtration) for ITC and SPR; co-purified with Bre1-LR for the …) KNVKKTNNTESECEKAREVFKESDSIDSALEELNLKINSNELELRLLNNQCDKHALNIQLTQEKLDSLLLMQ ?
[reply] 82.3

Hey, just so you know, these numbers are from paper PMC12802937.
